These data points were gathered from patent US20240409617A1.

Please respond with reported Response for every item in the list.
Molecular target: WT Spike (SARS-CoV2)
Answers are plain numbers.

The cases that follow already have their Response on record.
## Task Bench note: what Response did Ab_17 scFv-Fc (scFv, V domains shown) VH: QVQLVQSGGGVVQPGRSLRLSCAASGFTFDDYAMHWVRQVPGKGLEWVSGIDWNSGVIGYADSVKGRFTISRDNVKNSLYLQMNSLRTEDSALYYCAKDIGPGGSGSYYAFDIWGQGTTVTVSS VL: QSALTQPASVSGSPGQSITISCTGTSSDVGGSKYVSWYQQHPGKAPKVMIYDVTKRPSGVPDRFSGSKSGNTASLTISGLQAEDEADYYCAAWDDSLNGVVFGGGTKLTVL show?
## Result 0.248

## Task Consider next the binder Ab_16 scFv-Fc (scFv, V domains shown) VH: QVQLVQSGGGVVQPGRSLRLSCAASGFTFSNYGMHWVRQAPGKGLEWVALIWERGSKKDYADSVKGRFTVSRDNSKNTLYLQMNSLRPEDTAVYFCAREGISMTGAEYFQHWGQGTLVTVSS VL: QSVLTQPPSVSGSPGQRVTMSCTGSSSNIGAGYDVHWYQQVPGAAPRLLIYGTNNRPSGVPDRFSGSKSGTSASLTITGLQAEDEADYYCQSYDNSLTDPYVFGTGTKVTVL in the same way.
## Result 0.346

## Task Consider next the binder S1-RBD-R3-T1-B12 Ab (Ab_31) scFv-Fc (scFv, V domains shown) VH: QVQLVQSGAEVKKPGSSVKVSCKASGGTFSSYTISWVRQAPGQGLEWMGGIIPILGTPNYAQKFQDRVAITADKSTSTAYMELSSLRSEDTAVYYCAVGSGWYSGFDYWGQGTLVTVSS VL: NFMLTQPHSVSESPGKTVTISCTGSSGSIASNYVQWYQQRPGSAPTTVIYEDSQRPSGVPDRFSGSIDSSSNSASLTISGLKTEDEADYYCQSFHNSNPVIFGGGTKLTVL in the same way.
## Result 0.101

## Task Consider next the binder S1-R3-T1-C4 (Ab_8) scFv-Fc (scFv, V domains shown) VH: QVQLVQSGAEVKKPGSSVKVSCKASGGTFSSYAISWLRQAPGQGLEWMGWINPNSGGTNYAQKFQGRVTMTRDTSISTAYMELSRLRSDDTAVYYCARGSGGYYLGWGQGTLVTVSS VL: QPGLTQPPSVSKGLRQTATLTCTGNSNNVGNQGAAWLQQHQGHPPKLLSYMNNNRPPGISERFSASRSGNTASLTITGLQPEDEADYYCSAWDSSLSRWVFGGGTKLSVL in the same way.
## Result 0.118

Next:
## Task Bench note: what Response did Ab_23 scFv-Fc (scFv, V domains shown) VH: EVQLVQSGAEVKKPGSSVKVSCRSSGGTFSTYGITWVRQAPGQGLEWMGRIIPSLGIPNYAQKFQGRVTITADTSVSTAWMELSSLESDDTAIYYCARENIDLATNDFWGQGTLVTVSS VL: QSALTQPPSASGSPGQSVTISCTGTSRDIGAYGYVSWYQQVPGKAPKLIIYEVRNRPSGVSSRFSGSKSGNTASLTISGLQAEDEADYYCSSYTSSSTLDVVFGGGTKLTVL show?
## Result 0.0845
